The reader will find reported growth values listed item by item below.
Test system: HOP-92 NSCLC
Experiment: NCI-60 one-dose screen, 48 h (100 = growth as untreated, 0 = no growth, -100 = all killed)
Details: 10 µM
The panel holds about 83,000 compounds, 20% with a hit somewhere; the sample as a whole holds those more often.

| compound | reading.unit | growth |
| --- | --- | --- |
| COc1ccc([C@H]2C(C(=O)c3ccc(Cl)cc3)C3(N[C@@H]2c2ccccc2)C(=O)Nc2ccc(Cl)cc23)cc1 (some centres undefined) | % | -26.7 |
| CCCCSc1nc(Nc2ccc(/C(C)=N/NC(N)=S)cc2)c(C#N)c(-c2ccc(F)cc2)n1 | % | -18.5 |
| O=C(c1ccc(O)cc1)C1[C@H](c2ccc(Br)cc2)[C@@H](c2ccccc2)NC12C(=O)Nc1ccccc12 (some centres undefined) | % | 8.1 |
| COc1ccsc1/C=N/NC(=O)c1[nH]c2ccc(Br)cc2c1-c1ccccc1 | % | -5.64 |
| O=C1Nc2ccc(F)cc2/C1=C/c1cccc(OCc2ccccn2)c1 | % | 26.5 |
| COc1ccc2[nH]c(O)c(N=NC(=O)COc3ccc(NC(=O)Nc4ccc(Cl)cc4)cc3)c2c1 | % | -32.5 |
| N#Cc1c(NC(=O)c2ccc(C(F)(F)F)cc2)sc2c1CCC(=O)C2 | % | -57 |
| COC[C@@H](CC(C)C)N=C1NC(=O)/C(=C/c2ccc3ncoc3c2)N1 | % | 15.8 |
| CONC[C@]1(C)C=C2C(=O)[C@](C)(O)C3(CC3)C(C)=C2[C@H]1O | % | -16.6 |

---

System: OVCAR-5 ovarian
Test: NCI-60 one-dose screen, 48 h (100 = growth as untreated, 0 = no growth, -100 = all killed)
Conditions: 10 µM
Compounds without any hit were thinned out: in the full panel of roughly 83,000, 20% have a hit.
recorded.metric: growth (%)

| compound | recorded.metric | reported |
| --- | --- | --- |
| COC1=C[C@@]23CCC(=O)N2CCc2cc4c(cc2[C@H]3[C@H]1OC(=O)C(C)(C)O)OCO4 | growth | 101 |
| CN1CCN(c2ccc(Nc3nc(NCCCNC(=O)c4ccccc4)c4sccc4n3)cc2)CC1 | growth | 88.4 |
| O=C(CNc1nc(-c2ccccc2)cs1)Nc1ccccc1 | growth | -67.4 |
| COc1cc2oc(-c3cccc(C(=O)Nc4ccc(Cl)cc4)c3)cc(=O)c2c(OCCNC(=O)CNC(=O)OC(C)(C)C)c1OC | growth | 67.8 |
| Cc1cc(C)cc(Oc2cccc(-c3c(C)nnn3C3CCN(CCN(C)C)CC3)n2)c1 | growth | 58 |
| COc1ccc(C(=O)/C=C/c2cc(C(F)(F)F)cc(C(F)(F)F)c2)cc1S(N)(=O)=O | growth | -93.6 |
| O=C(NO)c1ccc(-c2nc3ccc4[nH]ncc4c3c3c2CCCC3)cc1 | growth | -1.66 |
| O=C(CNc1nc(-c2ccccc2)cs1)Nc1ccc([N+](=O)[O-])cc1 | growth | -39.6 |
| C#Cc1ccc(S(=O)(=O)Nc2cccc(-c3csc(NC(C)=O)n3)c2)cc1 | growth | 101 |
| COc1ccc(CN2[C@@H](C(=O)NCc3ccc(C(=O)NO)cc3)Cc3c([nH]c4ccccc34)[C@@H]2C)cc1 | growth | 4.29 |
| COc1ccc2c(c1)N=C(C(=O)O)/C2=C/c1sc(Nc2ccc(O)cc2)nc1O | growth | 109 |
| COc1ccc(C2N(c3ccc(Br)cc3)N=C(C(C)=O)N2[C@H]2[C@H](OC(C)=O)O[C@H](COC(C)=O)[C@@H](OC(C)=O)[C@@H]2OC(C)=O)cc1 (some centres undefined) | growth | 85.6 |
| CCCn1c(=O)c2[nH]c(-c3ccc(OCc4nc5ccc(C(F)(F)F)cc5[nH]4)cc3)nc2n(CCC)c1=O | growth | 82.3 |
| O=C(CN1CCN(c2ncnc3c2cnn3-c2ccccc2)CC1)Nc1nncs1 | growth | -4.09 |
| COc1ccccc1NCc1ccc(CO)n1-c1ccc(C)cc1 | growth | 111 |
| Nc1nc(Nc2ccc(Cl)cc2)nn1Cc1cccc(Br)c1 | growth | 49.7 |
| Cc1ccc(F)cc1N/C=c1\s/c(=C(\C#N)C(=O)Nc2ccccc2)n(-c2ccccc2)c1=O | growth | 72.5 |
| COc1ccc(C(=O)/C=C/c2cc(F)cc(C(F)(F)F)c2)cc1S(N)(=O)=O | growth | -59.9 |
| COC(=O)CC1CC1C1Cc2c(nc(N(C)S(C)(=O)=O)nc2C(C)C)-c2ccc(F)cc21 (centres undefined) | growth | 90 |
